target.system: V600E full-length B-Raf (Homo sapiens, UniProt P15056, V600E)
Construct: 1 μM FSBA-MEK and 20 nM V600E full-length B-Raf; made in house; host or cells: sf9 insect cells (baculovirus)
Sequence (P15056 whole entry V600E): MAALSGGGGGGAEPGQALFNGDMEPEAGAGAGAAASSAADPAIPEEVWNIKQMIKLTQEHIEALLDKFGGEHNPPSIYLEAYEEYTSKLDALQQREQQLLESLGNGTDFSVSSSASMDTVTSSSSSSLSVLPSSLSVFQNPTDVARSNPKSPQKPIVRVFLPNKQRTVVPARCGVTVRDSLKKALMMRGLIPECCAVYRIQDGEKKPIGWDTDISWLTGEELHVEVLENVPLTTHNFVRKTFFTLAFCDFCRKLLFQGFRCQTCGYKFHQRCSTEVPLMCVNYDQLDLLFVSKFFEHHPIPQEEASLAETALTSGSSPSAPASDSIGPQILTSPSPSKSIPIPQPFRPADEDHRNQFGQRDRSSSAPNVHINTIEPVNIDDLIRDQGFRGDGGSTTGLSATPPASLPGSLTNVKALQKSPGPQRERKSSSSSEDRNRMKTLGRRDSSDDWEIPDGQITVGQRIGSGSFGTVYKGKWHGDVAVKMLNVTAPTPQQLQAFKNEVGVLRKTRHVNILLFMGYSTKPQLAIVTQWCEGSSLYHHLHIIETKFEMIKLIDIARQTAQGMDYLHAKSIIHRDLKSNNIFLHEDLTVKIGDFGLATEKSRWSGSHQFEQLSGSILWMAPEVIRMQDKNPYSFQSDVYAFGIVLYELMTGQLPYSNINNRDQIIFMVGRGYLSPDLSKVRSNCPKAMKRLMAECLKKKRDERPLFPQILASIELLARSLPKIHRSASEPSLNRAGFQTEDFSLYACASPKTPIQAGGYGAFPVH
measurement.protocol: B-Raf IC50 Assay (B-RAF V600E inhibition assay, Example A)
Type: biochemical
details: incorporation of radio labeled phosphate from [γ-33P]ATP into FSBA-modified wild-type MEK; 4 μM ATP, 20 nM V600E full-length B-Raf, 60-minute incubation, 22° C.; read-out: BRAF V600E IC50
Measured IC50 determines class: bottom range: < 1 nM; center range: ≥ 1 nM and < 20 nM; top range: ≥ 20 nM

In [3]: df
Out[3]:
                            molecular_string                             target_system         group
 0  CCCS(=O)(=O)Nc1cc(F)c(F)c(NC(=O)c2csc3c(N)ncnc23)c1F  V600E full-length B-Raf (Homo sapiens, UniProt P15056, V600E)  bottom range
 1  CCCS(=O)(=O)Nc1ccc(F)c(NC(=O)c2csc3c(N)ncnc23)c1F  V600E full-length B-Raf (Homo sapiens, UniProt P15056, V600E)  center range
 2  CCCS(=O)(=O)Nc1ccc(Cl)c(NC(=O)c2csc3c(NCC(F)F)ncnc23)c1Cl  V600E full-length B-Raf (Homo sapiens, UniProt P15056, V600E)  center range
 3  CCCS(=O)(=O)Nc1ccc(F)c(NC(=O)c2csc3c(C(F)F)ncnc23)c1F  V600E full-length B-Raf (Homo sapiens, UniProt P15056, V600E)     top range
 4  CCCS(=O)(=O)Nc1cccc(NC(=O)c2csc3c(N)ncnc23)c1Cl  V600E full-length B-Raf (Homo sapiens, UniProt P15056, V600E)  center range
 5  CCCS(=O)(=O)Nc1cc(Cl)cc(NC(=O)c2csc3c(N)ncnc23)c1F  V600E full-length B-Raf (Homo sapiens, UniProt P15056, V600E)     top range
 6  CCCS(=O)(=O)Nc1cc(F)c(F)c(NC(=O)c2csc3c(NCC(F)F)ncnc23)c1F  V600E full-length B-Raf (Homo sapiens, UniProt P15056, V600E)  center range
 7  CCCS(=O)(=O)Nc1ccc(Cl)c(NC(=O)c2csc3c(NCC)ncnc23)c1Cl  V600E full-length B-Raf (Homo sapiens, UniProt P15056, V600E)  bottom range
 8  CCNc1ncnc2c(C(=O)Nc3c(Cl)ccc(NS(=O)(=O)CCCF)c3Cl)csc12  V600E full-length B-Raf (Homo sapiens, UniProt P15056, V600E)  bottom range
 9  CCCS(=O)(=O)Nc1ccc(F)c(NC(=O)c2c[nH]c3cncnc23)c1F  V600E full-length B-Raf (Homo sapiens, UniProt P15056, V600E)     top range
10  CCCS(=O)(=O)Nc1ccc(Cl)c(NC(=O)c2csc3c(NC4CCNCC4)ncnc23)c1Cl  V600E full-length B-Raf (Homo sapiens, UniProt P15056, V600E)     top range
11  CCCS(=O)(=O)Nc1ccc(F)c(NC(=O)c2csc3c(C)ncnc23)c1Cl  V600E full-length B-Raf (Homo sapiens, UniProt P15056, V600E)     top range
12  CCCS(=O)(=O)Nc1ccc(F)c(NC(=O)c2nsc3c(N)ncnc23)c1F  V600E full-length B-Raf (Homo sapiens, UniProt P15056, V600E)  center range
13  CC(C)CS(=O)(=O)Nc1ccc(F)c(NC(=O)c2csc3c(N)ncnc23)c1Cl  V600E full-length B-Raf (Homo sapiens, UniProt P15056, V600E)  bottom range
14  CCCS(=O)(=O)Nc1ccc(F)c(NC(=O)c2csc3c(NCC)ncnc23)c1F  V600E full-length B-Raf (Homo sapiens, UniProt P15056, V600E)  center range
15  CCCS(=O)(=O)Nc1ccc(Cl)c(NC(=O)c2csc3c(NC(C)C)ncnc23)c1Cl  V600E full-length B-Raf (Homo sapiens, UniProt P15056, V600E)  center range
16  CCCS(=O)(=O)Nc1ccc(Cl)c(NC(=O)c2csc3c(NOC)ncnc23)c1Cl  V600E full-length B-Raf (Homo sapiens, UniProt P15056, V600E)  center range

Source: patent US20120157439A1
